Reference source: ChEMBL document CHEMBL3600303

Test system: Human immunodeficiency virus 1
Test: Antiviral activity against HIV-1 ZM214M.15 pseudovirus infected in human TZM-bl cells assessed as inhibition of viral entry into cells after 48 hrs by single-cycle infection assay
Format: functional, organism-based
Conditions: Human immunodeficiency virus 1, ZM214M.15, TZM-bl
pIC50: −log10 of the molar value.
observed-property: pIC50

# substance, observed-property, numeric-value
measured = [
    ("H-WEAWDRAIAEYAARIEALIRAAQEQQEKNEAALREL-OH", "pIC50", 9.14),
    ("H-MTWEAWDRAIAEYAARIEALIRAAQEQQEKNEAALREL-OH", "pIC50", 9.13),
]
